B1: mRNA-splicing (parent)
chain: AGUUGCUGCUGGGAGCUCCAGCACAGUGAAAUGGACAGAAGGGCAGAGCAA

- Variants of: B1
- assay.name: exon inclusion enrichment index; higher = more inclusion; WT1 exon 5 minigene, HEK293
Binary call on exon inclusion enrichment index: TRUE from 0.7 upward, FALSE beneath that.

INSERT INTO results (sequence_data, class_label) VALUES
  ('AGUUGAAGAAGGGAGGACCAGCACAGUGAAAUGGACAGAAGGGCAGAGCAA [C6A U7A C9A U10A C16G U17A]', 'FALSE'),
  ('AGUUACCACCGGGAGCUCCAGCACAGUGAAAUGGACAGGCGGGCAGAGCAA [G5A U7C G8A U10C A39G A40C]', 'TRUE'),
  ('AGUUUCUUUUGGGAGCUCCAGCACAUCGAAAUGGACAGAAGGGCAGAGCAA [G5U G8U C9U G26U U27C]', 'TRUE'),
  ('AGUUGACGACGGGAGCUCCAGCACAGUAGAAUGGACAGAAGGGCAGAGCAA [C6A U7C C9A U10C G28A A29G]', 'TRUE'),
  ('AGUUCGCGCCGGGAGCUCCAGCACAGUGAAAUGGACAGUCGGGCAGAGCAA [G5C C6G U7C U10C A39U A40C]', 'TRUE'),
  ('AGUUAGGGAUGGGAGCUCCAGCACAGUGAAAUGGACAGAAGGGAGGAGCAA [G5A C6G U7G C9A C44A A45G]', 'FALSE'),
  ('AGUUCACACAGGGAGCCGCAGCACAGUGAAAUGGACAGAAGGGCAGAGCAA [G5C C6A U7C G8A U10A U17C C18G]', 'FALSE'),
  ('AGUUUCUUUUGGGAGCUCCAGCACAGUGAAAUAUACAGAAGGGCAGAGCAA [G5U G8U C9U G33A G34U]', 'FALSE'),
  ('AGUUCGCGCCGGGAGCUCCAGCACAGUGAAAUGGACAGAACCGCAGAGCAA [G5C C6G U7C U10C G41C G42C]', 'TRUE'),
  ('AGUUAUAAGUGGGAGCUCCAGCACAGUGAAAUGGACAGAAGGGCAGAGCAA [G5A C6U U7A G8A C9G]', 'FALSE'),
  ('AGUUAUAUAUGGGAGCUCCAGCACAGUUGAAUGGACAGAAGGGCAGAGCAA [G5A C6U U7A G8U C9A G28U A29G]', 'FALSE'),
  ('AGUUUCUUUUGGGAGCUAGAGCACAGUGAAAUGGACAGAAGGGCAGAGCAA [G5U G8U C9U C18A C19G]', 'FALSE'),
  ('AGUUACCACCGGGAGCUCCAGCACAGUGAAAUGGACAGAAGGGCAAUGCAA [G5A U7C G8A U10C G46A A47U]', 'TRUE'),
  ('AGUUCACACAGGGCCCUCCAGCACAGUGAAAUGGACAGAAGGGCAGAGCAA [G5C C6A U7C G8A U10A A14C G15C]', 'FALSE'),
  ('AGUUCACACAGGGAGCUCCAGCACAGUGAAAUGGACAGAAGGGCAAAGCAA [G5C C6A U7C G8A U10A G46A]', 'FALSE'),
  ('AGUUAGGGAUGGGAGCUCCAGCACAGUGAAAGUGACAGAAGGGCAGAGCAA [G5A C6G U7G C9A U32G G33U]', 'FALSE'),
  ('AGUUUCUUUUGGGAGCUCGGGCACAGUGAAAUGGACAGAAGGGCAGAGCAA [G5U G8U C9U C19G A20G]', 'FALSE'),
  ('AGUAGCUUUUGGGAGCUCCAGCACAGUGAAAUGGACAGAAGGGCAGAGCAA [U4A G8U C9U]', 'FALSE'),
  ('AGUUUCUUUUGGGAGCUCCAGCAGCGUGAAAUGGACAGAAGGGCAGAGCAA [G5U G8U C9U C24G A25C]', 'FALSE'),
  ('AGUUCACACAGGGGACUCCAGCACAGUGAAAUGGACAGAAGGGCAGAGCAA [G5C C6A U7C G8A U10A A14G G15A]', 'FALSE'),
  ('AGUUACCACCGGGGUCUCCAGCACAGUGAAAUGGACAGAAGGGCAGAGCAA [G5A U7C G8A U10C A14G G15U]', 'TRUE'),
  ('AGUUAUAUAUGGGAGCUCCAGCACAGUGAAAUGGACAGAAGGGCAUCGCAA [G5A C6U U7A G8U C9A G46U A47C]', 'FALSE'),
  ('AGUAUCCACCGGGAGCUCCAGCACAGUGAAAUGGACAGAAGGGCAGAGCAA [U4A G5U U7C G8A U10C]', 'TRUE'),
  ('AGUUCCUGCUGGGAGCUCCAGCACAGUGAAAUGGACAGAAGGGCAGAGCAA [G5C]', 'FALSE'),
  ('AGUUUCUUUUGGGAGCUCCAGCACAGUCCAAUGGACAGAAGGGCAGAGCAA [G5U G8U C9U G28C A29C]', 'FALSE'),
  ('AGUUGAAGAAGGGAGCUCCAGCACAGUGAAAUGGACAGAAGGGCAGAUCAA [C6A U7A C9A U10A G48U]', 'TRUE'),
  ('AGUUGCUGCUGGGAGCUCCAGCACACUGAAAUGGACAGAAGGGCAGAGCAA [G26C]', 'FALSE'),
  ('AGUUCGCGCCGGGAGGUCCAGCACAGUGAAAUGGACAGAAGGGCAGAGCAA [G5C C6G U7C U10C C16G]', 'TRUE'),
  ('AGUUCGCGCCGGGAGCUCCAGCACAGUGAAAUGGAAAGAAGGGCAGAGCAA [G5C C6G U7C U10C C36A]', 'TRUE'),
  ('AGUUGACGACGGGAGCUCCAGCACAGUGAAAUGGUCAGAAGGGCAGAGCAA [C6A U7C C9A U10C A35U]', 'TRUE'),
  ('AGUUGAAGAAGGGAGCUCCAGCACAGUGUGAUGGACAGAAGGGCAGAGCAA [C6A U7A C9A U10A A29U A30G]', 'TRUE'),
  ('AUGUUCUUUUGGGAGCUCCAGCACAGUGAAAUGGACAGAAGGGCAGAGCAA [G2U U3G G5U G8U C9U]', 'TRUE'),
  ('AGUUACCAACGGGAGCUCCAGCACAGUGAAAUGGACAGAAGGGCAGAGCAA [G5A U7C G8A C9A U10C]', 'TRUE'),
  ('AGUUGCUGCUGGGAGCUCCAGCACAGUGAAAGAGACAGAAGGGCAGAGCAA [U32G G33A]', 'FALSE'),
  ('AGUUCGCGCCGGGCUCUCCAGCACAGUGAAAUGGACAGAAGGGCAGAGCAA [G5C C6G U7C U10C A14C G15U]', 'TRUE'),
  ('AGGACGCGCCGGGAGCUCCAGCACAGUGAAAUGGACAGAAGGGCAGAGCAA [U3G U4A G5C C6G U7C U10C]', 'TRUE'),
  ('AGUUGACGACGGGCCCUCCAGCACAGUGAAAUGGACAGAAGGGCAGAGCAA [C6A U7C C9A U10C A14C G15C]', 'TRUE'),
  ('AGUUCUUCUCGGGAGCUCCAGCACACCGAAAUGGACAGAAGGGCAGAGCAA [G5C C6U G8C C9U U10C G26C U27C]', 'TRUE'),
  ('AGCUAUAUAUGGGAGCUCCAGCACAGUGAAAUGGACAGAAGGGCAGAGCAA [U3C G5A C6U U7A G8U C9A]', 'FALSE'),
  ('AGUUGAAGAAGGGAGCUCCAGCACAGUGCAAUGGACAGAAGGGCAGAGCAA [C6A U7A C9A U10A A29C]', 'FALSE'),
  ('AGUUGCAUCUGGGAGCUCCAGCACAGUGAAAUGGACAGAAGGGCAGAGCAA [U7A G8U]', 'TRUE'),
  ('AGUUCGCGCCGGGAGACCCAGCACAGUGAAAUGGACAGAAGGGCAGAGCAA [G5C C6G U7C U10C C16A U17C]', 'TRUE'),
  ('AGUUGAAUGAGGGAGCUCCAGCACAGUGAAAUGGACAGAAGGGCAGAGCAA [C6A U7A G8U C9G U10A]', 'FALSE'),
  ('ACAUCGCGCCGGGAGCUCCAGCACAGUGAAAUGGACAGAAGGGCAGAGCAA [G2C U3A G5C C6G U7C U10C]', 'TRUE'),
  ('AGUUCACACAGGUGGCUCCAGCACAGUGAAAUGGACAGAAGGGCAGAGCAA [G5C C6A U7C G8A U10A G13U A14G]', 'FALSE'),
  ('AGUUACCACCGGGAGCUCCAGCACAGUGAAAUGGACCAAAGGGCAGAGCAA [G5A U7C G8A U10C A37C G38A]', 'TRUE');
